- assay: log P measured by the procedure of Donovan and Pescatore, internally standardized with toluene and triphenylene
- Format: physicochemical
- protocol.conditions: pH 7, measured at pH 7 (Table 22); read-out: Log P
measured.metric: chromatographic logP
# print the numeric value only

Consider the compound CCCCCCCC(=O)Oc1c(I)cc(C#N)cc1I [Ioxynil Octanoate] and give its recorded chromatographic logP.
5.6

Consider the compound CCCN(CCC)c1c([N+](=O)[O-])cc(C(F)(F)F)cc1[N+](=O)[O-] [Trifluran] and give its recorded chromatographic logP.
5.08

Consider the compound O=C(Nc1ccc(F)cc1F)c1cccnc1Oc1cccc(C(F)(F)F)c1 [Diflufenican] and give its recorded chromatographic logP.
4.76
